# protocol.text: Toxicity liver stage against HepG2, at 10uM
# Assay type: cell-based
# Design: test concentration 10 uM, cell line HepG2-A16-CD81EGFP
# protocol.conditions: human, HepG2-A16-CD81EGFP cells; read-out: INHIBITION
Reported values of cytotoxicity at 10 µM for individual entries
Provide the reading as a plain figure in %.

The examples below pair each entry with its known result.
[[record]]
compound = "CN(C)CCN1C(=O)CCCC12CCCN(Cc1cccs1)C2 (stereo not given)"
recorded_measurement = 0.199

[[record]]
compound = "Cc1cc(C)c(CNc2ncnc3c2cnn3C)c(=O)[nH]1"
recorded_measurement = 8.63

[[record]]
compound = "CCN(CC1CCOC1)C(=O)Nc1ccc(-n2cncn2)nc1 (stereo not given)"
recorded_measurement = -6.92

[[record]]
compound = "O=C([C@H]1CCCO1)N1CCc2ncnc(NC3CC3)c2CC1"
recorded_measurement = -12.6


Query: So what does the record say about cytotoxicity at 10 µM for "CCNc1nc(-c2cccnc2)c(-c2ccnc(N3CCCC3)n2)s1" ?
Result: -5.14

---

Reported values of cytotoxicity at 10 µM for individual entries
# protocol.text: Toxicity liver stage against HepG2, at 10uM
# Format: cell-based
# Parameters: test concentration 10 uM, cell line HepG2-A16-CD81EGFP
# protocol.conditions: human, HepG2-A16-CD81EGFP cells; read-out: INHIBITION
Provide the reading as a plain figure in %.

The examples below pair each entry with its known result.
[[record]]
compound = "O=C(NCc1ccon1)Nc1cc(F)ccc1N1CCCCC1"
measured_metric = "cytotoxicity at 10 µM"
recorded_measurement = 12.7

[[record]]
compound = "CC(=O)NCC(=O)N1CCc2c(CN(C)C)nn(C(C)C)c2C1"
measured_metric = "cytotoxicity at 10 µM"
recorded_measurement = -4.94

[[record]]
compound = "COc1cccc(N2CCN(Cc3cc(C)cc(F)c3)CC2=O)c1"
measured_metric = "cytotoxicity at 10 µM"
recorded_measurement = 25.9

[[record]]
compound = "Cc1cc(C(=O)N2CCCC2)ccc1NS(C)(=O)=O"
measured_metric = "cytotoxicity at 10 µM"
recorded_measurement = 0.535

[[record]]
compound = "O=C(NCCNc1ncccn1)N1CC=C(c2ccccc2)CC1"
measured_metric = "cytotoxicity at 10 µM"
recorded_measurement = 12.6

[[record]]
compound = "CC(C)NC(=O)C1CCC2(CCNCC2)C1 (configuration not stated)"
measured_metric = "cytotoxicity at 10 µM"
recorded_measurement = 7.18

[[record]]
compound = "Cn1ccnc1C(=O)N[C@@H]1CN(Cc2cccs2)[C@@H]2CCCO[C@@H]21"
measured_metric = "cytotoxicity at 10 µM"
recorded_measurement = 3.16

[[record]]
compound = "CNC(=O)C1CCCN(c2nc3c(-c4ccccc4)csc3c(=O)[nH]2)C1 (configuration not stated)"
measured_metric = "cytotoxicity at 10 µM"
recorded_measurement = -1.03

[[record]]
compound = "CC(=O)N1Cc2ccccc2C[C@H]1C(=O)N(C)CCc1ccccn1"
measured_metric = "cytotoxicity at 10 µM"
recorded_measurement = -3.27

[[record]]
compound = "CCOC(=O)Cn1c(=O)nc(N)c2c(-c3ccc(OC)cc3)csc21"
measured_metric = "cytotoxicity at 10 µM"
recorded_measurement = -33.2


Query: So what does the record say about cytotoxicity at 10 µM for N#Cc1ccnc(N2CCN(CC(O)c3ccc(F)c(F)c3)CC2)c1 (configuration not stated) ?
Result: 2.8

Query: So what does the record say about cytotoxicity at 10 µM for "CNc1cc(-c2ccncc2)ncn1" ?
Result: -13.9

Query: So what does the record say about cytotoxicity at 10 µM for "O=C(C1CCOCC1)N1C[C@@H]2[C@@H](C1)OCC(=O)N2CC1CC1" ?
Result: 2.29

Query: So what does the record say about cytotoxicity at 10 µM for CN(C)C1Cc2ccccc2N(S(=O)(=O)c2ccccc2C#N)C1 (configuration not stated) ?
Result: 0.71

Query: So what does the record say about cytotoxicity at 10 µM for "c1cnnc(-c2noc(CCN3CCCO3)n2)c1" ?
Result: -3.61

Query: So what does the record say about cytotoxicity at 10 µM for "COc1ncccc1C(=O)N1CC[C@]2(C[C@@H](Oc3cccnc3)CO2)C1" ?
Result: 4.43

Query: So what does the record say about cytotoxicity at 10 µM for "Cc1ccccc1CN(Cc1ccccn1)C(=O)CNS(C)(=O)=O" ?
Result: 1.48

Query: So what does the record say about cytotoxicity at 10 µM for "Cc1nc(C(=O)NC2CCN(CCOc3ccc(Br)cc3)CC2)cs1" ?
Result: 13

Query: So what does the record say about cytotoxicity at 10 µM for "O=C(NC[C@]12COC[C@H]1CN(Cc1nccs1)C2)N1CCCC1" ?
Result: -7.27

Query: So what does the record say about cytotoxicity at 10 µM for CCCN1CCC2(C1)c1ccccc1S(=O)(=O)N2C (configuration not stated) ?
Result: 9.04

Query: So what does the record say about cytotoxicity at 10 µM for Cc1cnn(CC2CN(CC(=O)NCCc3cccs3)CCO2)c1 (configuration not stated) ?
Result: 1.88

Query: So what does the record say about cytotoxicity at 10 µM for Cn1ccnc1CN(CCCO)C1CCCc2ccccc21 (configuration not stated) ?
Result: -6.91

Query: So what does the record say about cytotoxicity at 10 µM for "Cc1cccc(CN2CCN3C[C@H](Oc4cccnc4)C[C@H]3C2)n1" ?
Result: 6.61

Query: So what does the record say about cytotoxicity at 10 µM for O=C(NCCn1ccnc1C1CCOC1)c1cccnc1 (configuration not stated) ?
Result: -0.757

Query: So what does the record say about cytotoxicity at 10 µM for O=C1C(NS(=O)(=O)c2ccc(F)cc2F)CCN1Cc1ccccc1 (configuration not stated) ?
Result: -0.885

Query: So what does the record say about cytotoxicity at 10 µM for "Cc1nc(NC2(CN3CCCCC3)CCCCC2)c2cnn(C)c2n1" ?
Result: 3.94
